- System: U87-MG human glioblastoma cell line
- experiment_description: cells
- recorded_conditions: Homo sapiens, U-87 MG, 72 h
Recorded measurements of IC50, one per entry
measured_property: IC50 (nM)

>>> assay_value("CC(C)C[C@H](NC(=O)[C@H](Cc1ccccc1)NC(=O)c1cnccn1)B(O)O")
400
>>> assay_value("CC[C@@]1(O)C(=O)OCc2c1cc1n(c2=O)Cc2cc3c(CN(C)C)c(O)ccc3nc2-1")
750
>>> assay_value("CCc1c2c(nc3ccc(OC(=O)N4CCC(N5CCCCC5)CC4)cc13)-c1cc3c(c(=O)n1C2)COC(=O)[C@]3(O)CC")
7540
>>> assay_value("CC(=O)O[C@@]12CO[C@@H]1C[C@H](O)[C@@]1(C)C(=O)[C@H](O)C3=C(C)[C@@H](OC(=O)[C@H](O)[C@@H](NC(=O)OC(C)(C)C)c4ccccc4)C[C@@](O)([C@@H](OC(=O)c4ccccc4)[C@H]21)C3(C)C")
100
>>> assay_value("COc1cc([C@@H]2c3cc4c(cc3[C@@H](O[C@@H]3O[C@@H]5CO[C@@H](C)O[C@H]5[C@H](O)[C@H]3O)[C@H]3COC(=O)[C@H]23)OCO4)cc(OC)c1O [Etoposide, etoposide]")
18500

====

Recorded measurements of pIC50, one per entry
- System: MDA-MB-231 human breast adenocarcinoma cell line
- experiment_description: cells
- recorded_conditions: Homo sapiens, MDA-MB-231, 72 h
pIC50: −log10 of the molar value.
measured_property: pIC50

>>> assay_value("COc1cccc2c1C(=O)c1c(O)c3c(c(O)c1C2=O)C[C@@](O)(C(C)=O)C[C@@H]3O[C@H]1C[C@H](N)[C@H](O)[C@H](C)O1 [Daunorubicin, daunorubicin]")
6.43
>>> assay_value("COc1cc2c(cc1O)CCN[C@]21CS[C@@H]2c3c(OC(C)=O)c(C)c4c(c3[C@H](COC1=O)N1[C@@H]2[C@H]2c3c(cc(C)c(OC)c3O)C[C@@H]([C@@H]1O)N2C)OCO4 [ET-743, trabectedin]")
8.70
>>> assay_value("COc1cccc2c1C(=O)c1c(O)c3c(c(O)c1C2=O)C[C@@](O)(C(=O)CO)C[C@@H]3O[C@H]1C[C@H](N)[C@H](O)[C@H](C)O1 [Doxorubicin, doxorubicin]")
6.22

====

- Test system: HGC-27 human gastric carcinoma cell line
- experiment_description: cells
- recorded_conditions: Homo sapiens, HGC-27, 72 h
pIC50: −log10 of the molar value.
measured_property: pIC50

>>> assay_value("COc1cccc2c1C(=O)c1c(O)c3c(c(O)c1C2=O)C[C@@](O)(C(C)=O)C[C@@H]3O[C@H]1C[C@H](N)[C@H](O)[C@H](C)O1")
6.43
>>> assay_value("CC(C)C[C@H](NC(=O)[C@H](Cc1ccccc1)NC(=O)c1cnccn1)B(O)O")
8.25
>>> assay_value("COc1cc([C@@H]2c3cc4c(cc3[C@@H](O[C@@H]3O[C@@H]5CO[C@@H](C)O[C@H]5[C@H](O)[C@H]3O)[C@H]3COC(=O)[C@H]23)OCO4)cc(OC)c1O [Etoposide, etoposide]")
5.54

====

- Tested on: U87-MG human glioblastoma cell line
- experiment_description: cells
- recorded_conditions: Homo sapiens, U-87 MG, 72 h
measured_property: IC50 (µM)

>>> assay_value("COc1cccc2c1C(=O)c1c(O)c3c(c(O)c1C2=O)C[C@@](O)(C(=O)CO)C[C@@H]3O[C@H]1C[C@H](N)[C@H](O)[C@H](C)O1")
0.3
>>> assay_value("Nc1ccn([C@@H]2O[C@H](CO)[C@@H](O)C2(F)F)c(=O)n1")
0.45
>>> assay_value("CC[C@]1(O)C[C@H]2CN(CCc3c([nH]c4ccccc34)[C@@](C(=O)OC)(c3cc4c(cc3OC)N(C=O)[C@H]3[C@@](O)(C(=O)OC)[C@H](OC(C)=O)[C@]5(CC)C=CCN6CC[C@]43[C@@H]65)C2)C1")
0.1
>>> assay_value("O=c1[nH]cc(F)c(=O)[nH]1")
1000
>>> assay_value("COc1cccc2c1C(=O)c1c(O)c3c(c(O)c1C2=O)C[C@@](O)(C(C)=O)C[C@@H]3O[C@H]1C[C@H](N)[C@H](O)[C@H](C)O1")
0.284
>>> assay_value("COc1cc2c(cc1O)CCN[C@]21CS[C@@H]2c3c(OC(C)=O)c(C)c4c(c3[C@H](COC1=O)N1[C@@H]2[C@H]2c3c(cc(C)c(OC)c3O)C[C@@H]([C@@H]1O)N2C)OCO4")
0.005

====

- Tested on: HGC-27 human gastric carcinoma cell line
- experiment_description: cells
- recorded_conditions: Homo sapiens, HGC-27, 72 h
pIC50: −log10 of the molar value.
measured_property: pIC50

>>> assay_value("CO[C@H]1C[C@@H]2CC[C@@H](C)[C@@](O)(O2)C(=O)C(=O)N2CCCC[C@H]2C(=O)O[C@H]([C@H](C)C[C@@H]2CC[C@@H](OC(=O)C(C)(CO)CO)[C@H](OC)C2)CC(=O)[C@H](C)/C=C(\\C)[C@@H](O)[C@@H](OC)C(=O)[C@H](C)C[C@H](C)/C=C/C=C/C=C/1C [Temsirolimus, temsirolimus]")
6.82
>>> assay_value("CC(=O)O[C@H]1C(=O)[C@@]2(C)[C@H]([C@H](OC(=O)c3ccccc3)[C@]3(O)C[C@H](OC(=O)[C@H](O)[C@@H](NC(=O)c4ccccc4)c4ccccc4)C(C)=C1C3(C)C)[C@]1(OC(C)=O)CO[C@@H]1C[C@@H]2O [Paclitaxel, paclitaxel]")
8.30
>>> assay_value("CCc1c2c(nc3ccc(OC(=O)N4CCC(N5CCCCC5)CC4)cc13)-c1cc3c(c(=O)n1C2)COC(=O)[C@]3(O)CC [Irinotecan, irinotecan]")
5.40
>>> assay_value("COc1c(C)cc2c(c1O)[C@@H]1[C@@H]3Cc4c(OC(C)=O)c(C)c5c(c4[C@H](CNC(=O)/C=C/c4cccc(C(F)(F)F)c4)N3[C@@H](O)[C@H](C2)N1C)OCO5 [PM00104]")
8.49
>>> assay_value("O=P1(N(CCCl)CCCl)NCCCO1 (stereo not drawn) [Cyclophosphamide, cyclophosphamide]")
3.00
>>> assay_value("C#Cc1cccc(Nc2ncnc3cc(OCCOC)c(OCCOC)cc23)c1 [Erlotinib, erlotinib]")
5.12
>>> assay_value("CC[C@@]1(O)C(=O)OCc2c1cc1n(c2=O)Cc2cc3c(CN(C)C)c(O)ccc3nc2-1 [Topotecan, topotecan]")
6.09
>>> assay_value("Nc1ccn([C@@H]2O[C@H](CO)[C@@H](O)C2(F)F)c(=O)n1 [Gemcitabine, gemcitabine]")
9.27
>>> assay_value("CCC1=C[C@@H]2CN(C1)Cc1c([nH]c3ccccc13)[C@@](C(=O)OC)(c1cc3c(cc1OC)N(C)[C@H]1[C@@](O)(C(=O)OC)[C@H](OC(C)=O)[C@]4(CC)C=CCN5CC[C@]31[C@@H]54)C2 [Vinorelbine, vinorelbine]")
7.19

====

Recorded measurements of log10(IC50), one per entry
- Test system: MDA-MB-231 human breast adenocarcinoma cell line
- experiment_description: cells
- recorded_conditions: Homo sapiens, MDA-MB-231, 72 h
measured_property: log10(IC50) (log10 of the value in µM)

>>> assay_value("COc1c(C)cc2c(c1O)[C@@H]1[C@@H]3Cc4c(OC(C)=O)c(C)c5c(c4[C@H](CNC(=O)/C=C/c4cccc(C(F)(F)F)c4)N3[C@@H](O)[C@H](C2)N1C)OCO5 [PM00104]")
-3.00
>>> assay_value("CC[C@]1(O)C[C@H]2CN(CCc3c([nH]c4ccccc34)[C@@](C(=O)OC)(c3cc4c(cc3OC)N(C=O)[C@H]3[C@@](O)(C(=O)OC)[C@H](OC(C)=O)[C@]5(CC)C=CCN6CC[C@]43[C@@H]65)C2)C1 [Vincristine, vincristine]")
-1.30
>>> assay_value("CN(Cc1cnc2nc(N)nc(N)c2n1)c1ccc(C(=O)N[C@@H](CCC(=O)O)C(=O)O)cc1 [Methotrexate, methotrexate]")
0.77
>>> assay_value("CO[C@H]1C[C@@H]2CC[C@@H](C)[C@@](O)(O2)C(=O)C(=O)N2CCCC[C@H]2C(=O)O[C@H]([C@H](C)C[C@@H]2CC[C@@H](OC(=O)C(C)(CO)CO)[C@H](OC)C2)CC(=O)[C@H](C)/C=C(\\C)[C@@H](O)[C@@H](OC)C(=O)[C@H](C)C[C@H](C)/C=C/C=C/C=C/1C [Temsirolimus, temsirolimus]")
1.08
>>> assay_value("CN(C)/N=N/c1[nH]cnc1C(N)=O [Dacarbazine, dacarbazine]")
1.28
>>> assay_value("CCc1c2c(nc3ccc(OC(=O)N4CCC(N5CCCCC5)CC4)cc13)-c1cc3c(c(=O)n1C2)COC(=O)[C@]3(O)CC [Irinotecan, irinotecan]")
0.93
>>> assay_value("O=c1[nH]cc(F)c(=O)[nH]1 [5-FU, 5-fluorouracil]")
1.95
>>> assay_value("C#Cc1cccc(Nc2ncnc3cc(OCCOC)c(OCCOC)cc23)c1 [Erlotinib, erlotinib]")
2.00
>>> assay_value("CCC1=C[C@@H]2CN(C1)Cc1c([nH]c3ccccc13)[C@@](C(=O)OC)(c1cc3c(cc1OC)N(C)[C@H]1[C@@](O)(C(=O)OC)[C@H](OC(C)=O)[C@]4(CC)C=CCN5CC[C@]31[C@@H]54)C2 [Vinorelbine, vinorelbine]")
1.08
